Listed next: entries and their corresponding solubility.
Assay: physchem
Conditions: pH 9, aqueous with cosolvent or surfactant or cyclodextrin, kinetic from dmso stock

{"columns": ["compound", "solubility"],
 "data": [
  ["Cc1cccc2c1C(=O)c1cccc([N+](=O)[O-])c1C2=O [Compound 6A41]", "< 10 µM"],
  ["O=[N+]([O-])c1ccc(N=Nc2ccc(O)c3ccccc23)c([N+](=O)[O-])c1 [Compound 6A49]", "> 10 µM"],
  ["COc1ccc(N)c2c1C(=O)c1ccccc1C2=O [Compound 6A46]", "> 10 µM"],
  ["Cc1ccc2c(c1)C(=O)c1ccccc1C2=O [Compound 6A28]", "< 10 µM"],
  ["Nc1cccc2c1C(=O)c1ccccc1C2=O [Compound 6A25]", "< 10 µM"]
]}

Just for reference, patent US8778876B2 is where these values come from.
